- tested.on: KRAS G12C/SOS/c-Raf complex (Homo sapiens, UniProt P01116, G12C)
- Construct: Biotinylated AviTag-KRAS G12C (amino acid region 1-185, GDP)
- Sequence (P01116 1-185 isoform P01116-2 G12C, one chain of several): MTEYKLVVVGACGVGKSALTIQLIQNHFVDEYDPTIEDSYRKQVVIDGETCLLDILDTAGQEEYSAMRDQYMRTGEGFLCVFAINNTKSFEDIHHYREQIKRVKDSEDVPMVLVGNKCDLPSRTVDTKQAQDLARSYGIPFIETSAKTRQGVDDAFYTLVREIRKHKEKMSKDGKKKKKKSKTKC
- test.summary: KRAS G12C/SOS/c-Raf complex formation inhibitory action (TR-FRET)
- settings: one hour at room temperature, read-out: IC50 (KRAS G12C/SOS/c-Raf complex formation inhibition)
Can you tell me IC50 for the items I'm about to list?
Provide only the numeric value, understood in nM.

Prompt line: // returns reported IC50 for input C=CC(=O)N1CC2(CCN(c3nc(OC4CCN(CC)CC4)nc4c(OCC(F)(F)F)c(-c5c(C)ccc6[nH]ncc56)c(C=C)cc34)CC2)C1 [Example 9]
Response line: 55

Prompt line: // returns reported IC50 for input C=CC(=O)N1CC2(CCN(c3nc(OC4CCN(C5CC5)CC4)nc4c(OCC)c(-c5c(C)ccc6[nH]ncc56)c(C5CC5)cc34)CC2)C1 [Example 43]
Response line: 50

Prompt line: // returns reported IC50 for input C=CC(=O)N1CC2(CCN(c3nc(OC4CCN(C)CC4)nc4c(OCC(C)(F)F)c(-c5c(C)ccc6[nH]ncc56)c(C=C)cc34)CC2)C1 [Example 63]
Response line: 53

Prompt line: // returns reported IC50 for input C=CC(=O)N1CC2(CCN(c3nc(N4CCN(CCOC)CC4)nc4c(OCC(F)(F)F)c(-c5c(C)ccc6[nH]ncc56)c(C=C)cc34)CC2)C1 [Example 59]
Response line: 63

Prompt line: // returns reported IC50 for input C=CC(=O)N1CC2(CCN(c3nc(OC4CCN(CC)CC4)nc4c(OCC)c(-c5c(C)ccc6[nH]ncc56)c(C5CC5)cc34)CC2)C1 [Example 18]
Response line: 46

Prompt line: // returns reported IC50 for input C=CC(=O)N1CC2(CCN(c3nc(OC4CCN(CC(C)(C)O)CC4)nc4c(OCC(F)(F)F)c(-c5c(C)ccc6[nH]ncc56)c(C=C)cc34)CC2)C1 [Ex 31]
Response line: 45

Prompt line: // returns reported IC50 for input C=CC(=O)N1CC2(CCN(c3nc(OC4CCN(C)CC4)nc4c(OCC)c(-c5c(C)ccc6[nH]ncc56)c(C5CC5)cc34)CC2)C1 [Ex 2]
Response line: 37

Prompt line: // returns reported IC50 for input C=CC(=O)N1CC2(CCN(c3nc(OC4CCN(CCN(CC)CC)CC4)nc4c(OCC(F)(F)F)c(-c5c(C)ccc6[nH]ncc56)c(C=C)cc34)CC2)C1 [Example 67]
Response line: 43

Prompt line: // returns reported IC50 for input C=CC(=O)N1CC2(CCN(c3nc(OC4CCN(CC)CC4)nc4c(OCC(F)F)c(-c5c(C)ccc6[nH]ncc56)c(C=C)cc34)CC2)C1 [Example 10]
Response line: 34

Prompt line: // returns reported IC50 for input C=CC(=O)N1CC2(CCN(c3nc(OC[C@@H]4CCCN4C)nc4c(OC)c(-c5c(C)ccc6[nH]ncc56)c(C=C)cc34)CC2)C1 [Reference example 2, reference compound]
Response line: 35

Prompt line: // returns reported IC50 for input C=CC(=O)N1CC2(CCN(c3nc(OC4CCCN(C)CC4)nc4c(OCC(F)(F)F)c(-c5c(C)ccc6[nH]ncc56)c(C=C)cc34)CC2)C1 (centres unmarked) [Example 69]
Response line: 50

Prompt line: // returns reported IC50 for input C=CC(=O)N1CC2(CCN(c3nc(OC4CCN(CCOC)CC4)nc4c(OCC(F)F)c(-c5c(C)ccc6[nH]ncc56)c(C5CC5)cc34)CC2)C1 [Example 32]
Response line: 39

Prompt line: // returns reported IC50 for input C=CC(=O)N1CC2(CCN(c3nc(OC4CCN(CCOC)CC4)nc4c(OCC(F)(F)F)c(-c5c(C)ccc6[nH]ncc56)c(C5CC5)cc34)CC2)C1 [Example 35]
Response line: 17

Prompt line: // returns reported IC50 for input C=CC(=O)N1CC2(CCN(c3nc(OC[C@@H]4CCCN4C)nc4c(OCC)c(-c5c(C)ccc6[nH]ncc56)c(C5CC5)cc34)CC2)C1 [Example 23]
Response line: 39

----------
Can you tell me pIC50 for the items I'm about to list?
- tested.on: KRAS G12C/SOS/c-Raf complex (Homo sapiens, UniProt P01116, G12C)
- Construct: Biotinylated AviTag-KRAS G12C (amino acid region 1-185, GDP)
- test.summary: KRAS G12C/SOS/c-Raf complex formation inhibitory action (TR-FRET)
- settings: one hour at room temperature, read-out: IC50 (KRAS G12C/SOS/c-Raf complex formation inhibition)
- Excerpt: Evaluation of KRAS G12C/SOS/c-Raf Complex Formation Inhibitory Action Human Recombinant KRAS G12C, SOS, and c-Raf protein were used, and with respect to the complex formation of these proteins, an inhibitory action of the test compound was examined through a time-resolved fluorescence resonance energy transfer (TR-FRET) method. […]
Just so you know, pIC50 here is -log10 of the concentration in molar units; reply with that number alone.

Prompt line: // returns reported pIC50 for input "C=CC(=O)N1CC2(CCN(c3nc(OC4CCN(CCS(C)(=O)=O)CC4)nc4c(OCC(F)(F)F)c(-c5c(C)ccc6[nH]ncc56)c(C=C)cc34)CC2)C1"
Response line: 7.39

Prompt line: // returns reported pIC50 for input "C=CC(=O)N1CC2(CCN(c3nc(OC4CCN(CCC#N)CC4)nc4c(OCC)c(-c5c(C)ccc6[nH]ncc56)c(C5CC5)cc34)CC2)C1"
Response line: 7.22

Prompt line: // returns reported pIC50 for input "C=CC(=O)N1CC2(CCN(c3nc(OC4CCN(C)CC4)nc4c(OCC(F)F)c(-c5c(C)ccc6[nH]ncc56)c(C=C)cc34)CC2)C1"
Response line: 7.47

Prompt line: // returns reported pIC50 for input "C=CC(=O)N1CC2(CCN(c3nc(OC4CCN(CCOC)CC4)nc4c(OCC(F)(F)F)c(-c5cccc6[nH]ncc56)c(C5CC5)cc34)CC2)C1"
Response line: 7.41

Prompt line: // returns reported pIC50 for input "C=CC(=O)N1CC2(CCN(c3nc(OC4CCN(CCOC)CC4)nc4c(OCC(F)(F)F)c(-c5c(C=C)ccc6[nH]ncc56)c(C=C)cc34)CC2)C1"
Response line: 7.39

Prompt line: // returns reported pIC50 for input C=CC(=O)N1CC2(CCN(c3nc(OC4CCN(CCOC)CC4)nc4c(OCC(F)(F)F)c(-c5c(C)ccc6[nH]ncc56)c(C=C)cc34)CC2)C1 [Ex 26]
Response line: 7.39

Prompt line: // returns reported pIC50 for input "C=CC(=O)N1CC2(CCN(c3nc(OC[C@@H]4CCCN4C)nc4c(OCC(F)F)c(-c5c(C)ccc6[nH]ncc56)c(C=C)cc34)CC2)C1"
Response line: 7.30

Prompt line: // returns reported pIC50 for input C=CC(=O)N1CC2(CCN(c3nc(OC4CCN(CCOC)CC4)nc4c(OCC(F)(F)F)c(-c5c(C)ccc6[nH]ncc56)c(C=C)cc34)CC2)C1 [Ex 36]
Response line: 7.68

Prompt line: // returns reported pIC50 for input "C=CC(=O)N1CC2(CCN(c3nc(OC4CCN(CCCOC)CC4)nc4c(OCC(F)(F)F)c(-c5c(C)ccc6[nH]ncc56)c(C=C)cc34)CC2)C1"
Response line: 7.40

Prompt line: // returns reported pIC50 for input "C=CC(=O)N1CC2(CCN(c3nc(OC4CCS(=O)(=O)CC4)nc4c(OCC(F)(F)F)c(-c5c(C)ccc6[nH]ncc56)c(C=C)cc34)CC2)C1"
Response line: 7.29

Prompt line: // returns reported pIC50 for input C=CC(=O)N1CC2(CCN(c3nc(OC4CCN(C5CCOCC5)CC4)nc4c(OCC(F)(F)F)c(-c5c(C)ccc6[nH]ncc56)c(C=C)cc34)CC2)C1 (single isomer, unassigned) [Ex 39]
Response line: 7.85

Prompt line: // returns reported pIC50 for input "C=CC(=O)N1CC2(CCN(c3nc(OC4CCN(CCCOC(F)(F)F)CC4)nc4c(OCC(F)(F)F)c(-c5c(C)ccc6[nH]ncc56)c(C=C)cc34)CC2)C1"
Response line: 6.97

Prompt line: // returns reported pIC50 for input C=CC(=O)N1CC2(CCN(c3nc(OC4CCN(CCCOC)CC4)nc4c(OCC(F)(F)F)c(-c5c(C)ccc6[nH]ncc56)c(C5CC5)cc34)CC2)C1 [Ex 28]
Response line: 7.42

Prompt line: // returns reported pIC50 for input "C=CC(=O)N1CC2(CCN(c3nc(NC4CCN(C)CC4)nc4c(OCC(F)(F)F)c(-c5c(C)ccc6[nH]ncc56)c(C=C)cc34)CC2)C1"
Response line: 7.35

Prompt line: // returns reported pIC50 for input C=CC(=O)N1CC2(CCN(c3nc(OC4CCN(C)CC4)nc4c(OCC)c(-c5c(C)ccc6[nH]ncc56)c(C=C)cc34)CC2)C1 [Ex 5]
Response line: 7.51

Prompt line: // returns reported pIC50 for input "C=CC(=O)N1CC2(CCN(c3nc(OC4CCN(CCOCC5CC5)CC4)nc4c(OCC(F)(F)F)c(-c5c(C)ccc6[nH]ncc56)c(C=C)cc34)CC2)C1"
Response line: 7.38

Prompt line: // returns reported pIC50 for input "C=CC(=O)N1CC2(CCN(c3nc(OC4CCN(C)CC4)nc4c(OCc5ccccc5)c(-c5c(C)ccc6[nH]ncc56)c(C=C)cc34)CC2)C1"
Response line: 7.25

Prompt line: // returns reported pIC50 for input C=CC(=O)N1CC2(CCN(c3nc(OC4CCN(CC)CC4)nc4c(OC)c(-c5c(Cl)ccc6[nH]ncc56)c(C=C)cc34)CC2)C1 [Reference example 1, reference compound]
Response line: 7.43
